Test system: K4 kissing-loop RNA reporter;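 note: bound reporter read as fluorescence of individual clusters on recovered sequencing chips by microscopy, with normalized cluster intensities fitted with a binding model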
PROTOCOL: apparent KD of K4 kissing-loop reporter; higher = weaker reporter binding
MEASUREMENT_CONDITIONS: Eterna round: R107; input ligand: none
REPORTED_ENDPOINT: apparent KD of K4 kissing-loop reporter (nM)
Report the value in nM with no unit label.

Past entries and their recorded results:
| INPUT_SEQUENCE | ASSAYED_TARGET | DATA_VALUE |
| --- | --- | --- |
| GGGUCUGCCGGAAGGAGCGCACUAUGGAGUGAUGUUCCAUGACCGCACAGCUUGCGGUCAGUGCAGGUAGGUCGCCGGUAGCGUU [Inesor] | K4 kissing-loop RNA reporter | 175 |
| ACGGCGCUGGAACCAGUAAUGGGAAGAAUGCGAGGACCGGUACGGCCGCCACUCGCUUCCAGUGAUGUUGGAAGUGAGCCAACAA [Geerzaedre] | K4 kissing-loop RNA reporter | 304 |
| AGAGAUAUAUGAGGAUAUGGGUUUGUUAAUGAGUUAGUUUUAGUGUUGUUUGGUUAGUGAUGUUAUUUAGAAGGCGUGAGUGAUG [aatrmullin] | K4 kissing-loop RNA reporter | 61.4 |
| UGUGAUGUGUAGUGUAAUGUUUUGCGGGAUACCAGAGUCUUUUUAUUCCCUUGGCAGCUUGAGUGAUGUUUGAUGCUGUUCUUGU [llmdmullin] | K4 kissing-loop RNA reporter | 479 |
| GGGCAUGAUACGAUAAAAUAGUGGAGAGAUACCAGCGUUUUAGAUCGCCCUUGGCAGCUCUCGAGUGAUGUUCGGGUAGCUCUGA [Onedra] | K4 kissing-loop RNA reporter | 115 |

Switching to the query record.
Qu. Form field: reported apparent KD of K4 kissing-loop reporter of CUUGAGACAUGAGUGAUGUUCAUGUCCGAAGGAGCGUGCGAAAGCACAGGUAGGUCGCGGACGUGAGUGAUGUUCAUGUGAGCGA [KL-XArg-A10 #analogue]
Ans. 202

---

System: MS2 coat protein
PROTOCOL: apparent KD of MS2 coat protein; designed switch direction (-1 OFF switch, 1 ON switch): 1; higher = weaker reporter binding
MEASUREMENT_CONDITIONS: Eterna round: R95; input ligand: FMN 200 uM
Classify as follows. Reported apparent KD of MS2 coat protein greater than or equal to 40 nM: satisfied. Reported apparent KD of MS2 coat protein below: not satisfied.

| INPUT_SEQUENCE | CLASSIFICATION |
| --- | --- |
| CCGGUGAUAGGGCAGGAUAUGACUGUCGUCACAUGAGGAUCACCCAUGUCCCGGCAAUGCCACCGUUAGAAGGGCCCUAUCCCGA [Teuszaesti] (puzzle: Same State 2) | not satisfied |

Qu. Check if apparent KD of MS2 coat protein >= 40 nM (inclusive). Item: AUAAAACAUGAGGAUCACCCAUGUCAACAAAGUCGAGGAUAUGGGCAAAGAAAAUAAGAACCAGAAGGCGAAUAAU [salish99_ss1_r3_056] (puzzle: Same State 1)
Ans. not satisfied

Qu. Further, for ACAAGCUUUUCUGCAUUGAAAGGUGGGAUACAUGAGGAUCACCCAUGUUUUUAUGAAAAUAAUGCUCCUCGUCUUAU [JR_SHM208A_Sub092] (puzzle: Sensor for hsa-mir-208a) ?
Ans. satisfied

Qu. Further, for UGGUAACAUGAGGAUCACCCAUGUCAAAUGAAUCGAGGAUAUGGGAAAGGAGAAGAGAAACCAGAAGGCGAAGUUG [Altered State 1-13 - Jieux - Same State 1] (puzzle: Same State 1) ?
Ans. satisfied

Qu. Further, for UCUUGGUUUUUGCUCGUUUUUUGUGUUGAACAUGAGGAUCACCCAUGUAUUGUACGGUCCAAUUUAAUAAUAGUCCA [JMF 75] (puzzle: Sensor for hsa-mir-208a) ?
Ans. satisfied
